Test: clinical pathology (serum clinical chemistry) in mice
Assay type: in vivo
Settings: CD-1 mice, 20 mg/kg intravenously daily for 9 days, sera day 10
Numbered stars: 1 amine (or outer) side, 2 acyl side, 3 side chain; on linkers, the order of the positions; unused ones are H or OH. Square brackets hold non-standard residues; d marks the D form. Peptide text beside a SMILES is read from it. ξ: configuration not given here. X1 = N=C1NCC(C(O)C(N[*:1])C(=O)[*:2])N1C1OC(CO)C(O)C(O)C1O; ξEnduracididine(βξ-OH,4'ξ) = N=C1NCC(C(O)C(N)C(=O)O)N1; Cha = N[CH](CC1CCCCC1)C(=O)O
// values below are reported Clinical Chemistry (Day 10) % of Control, BUN
METRIC: Clinical Chemistry (Day 10) % of Control, BUN

# COMPOUND, TEST_VALUE
data = [
    ("N=C1NCC(C(O)C2NC(=O)C(CC3CCCCC3)NC(=O)C(CC3CCCCC3)NC(=O)CNC(=O)C(CO)NC(=O)C(C(O)C3CNC(=N)N3C3OC(CO)C(O)C(O)C3O)NC2=O)N1 (stereo not drawn) [Example 52] (cyclo(G[Cha][Cha][ξEnduracididine(βξ-OH,4'ξ)][X1]S); configuration not given here)", "211%"),
    ("CC(c1ccccc1)C1NC(=O)CNC(=O)C(CO)NC(=O)C(C(O)C2CNC(=N)N2C2OC(CO)C(O)C(O)C2O)NC(=O)C(C(O)C2CNC(=N)N2)NC(=O)C(Cc2ccc(OC3OC(CO)C(OC4OC5COC6(OC5C(O)C4O)C4CC5CC(C4)CC6C5)C(O)C3O)cc2)NC1=O (stereo not shown)", "+35%"),
    ("CC(c1ccccc1)C1NC(=O)CNC(=O)C(CO)NC(=O)C(C(O)C2CN(Cc3ccccc3-c3ccccc3)C(=N)N2C2OC(CO)C(O)C(O)C2O)NC(=O)C(C(O)C2CNC(=N)N2)NC(=O)C(Cc2ccc(OC3OC(CO)C(OC4OC(CO)C(O)C(O)C4O)C(O)C3O)cc2)NC1=O (stereo not shown)", "+161%"),
    ("CC(c1ccccc1)C1NC(=O)CNC(=O)C(CO)NC(=O)C(C(O)C2CNC(=N)N2C2OC(CO)C(O)C(O)C2O)NC(=O)C(C(O)C2CNC(=N)N2)NC(=O)C(Cc2ccc(OC3OC(CO)C(OC4OC5COC(c6ccc(C(=O)O)cc6)OC5C(O)C4O)C(O)C3O)cc2)NC1=O (stereo not shown)", "+308%"),
]
